Reported inhibition at 0.01 µM is given for each of the following compounds.
Biological target: human CA-II (Homo sapiens)
Construct: purchased Sigma-Aldrich C6165
Test: Carbonic Anhydrase-II (CA-II) Fluorimetric Assay-IC50 Determination
Type: biochemical
Conditions: at 10 nM (c7); read-out: CA-II % inhibition at concentration of column 7
quantity measured: inhibition at 0.01 µM (%)

INSERT INTO assay_data (compound, measurement_unit, reported_measurement) VALUES
  ('CN(CCc1cn[nH]c1)C(=O)c1nc(Cc2ccccc2)n(-c2ccc(S(N)(=O)=O)cc2)n1 [Example R-62]', '%', 96),
  ('NS(=O)(=O)c1ccc(-n2nc(C(=O)N3CCc4conc4CC3)nc2Cc2ccccc2)cc1 [Example R-61]', '%', 94),
  ('CN(CC(C)(O)c1ccccc1)C(=O)c1nc(Cc2ccccc2)n(-c2ccc(S(N)(=O)=O)cc2)n1 (stereo not drawn) [Example R-54]', '%', 97),
  ('Cc1csc(CN(C)C(=O)c2nc(Cc3ccccc3)n(-c3ccc(S(N)(=O)=O)cc3)n2)n1 [Example R-56]', '%', 95),
  ('CCCN(CCc1ccccn1)C(=O)c1nc(Cc2ccccc2)n(-c2ccc(S(N)(=O)=O)cc2)n1 [Example R-58]', '%', 98),
  ('CCc1nc(CN(C)C(=O)c2nc(Cc3ccccc3)n(-c3ccc(S(N)(=O)=O)cc3)n2)no1 [Example R-70]', '%', 94),
  ('Cc1cc(CN(C)C(=O)c2nc(Cc3ccccc3)n(-c3ccc(S(N)(=O)=O)cc3)n2)n[nH]1 [Example R-50]', '%', 95),
  ('CC1(c2ccccc2)CN(C(=O)c2nc(Cc3ccccc3)n(-c3ccc(S(N)(=O)=O)cc3)n2)CCO1 (stereo not drawn) [Example R-46]', '%', 96),
  ('NS(=O)(=O)c1ccc(-n2nc(C(=O)N3CCCC(c4cc[nH]n4)C3)nc2Cc2ccccc2)cc1 (stereo not drawn) [Example R-67]', '%', 97),
  ('CN(CCc1ccccc1)C(=O)c1nc(Cc2ccccc2)n(-c2ccc(S(N)(=O)=O)cc2)n1 [Example R-48]', '%', 97),
  ('Cc1ncsc1CCN(C)C(=O)c1nc(Cc2ccccc2)n(-c2ccc(S(N)(=O)=O)cc2)n1 [Example R-65]', '%', 90),
  ('C[C@@H]([C@@H](O)c1ccccc1)N(C)C(=O)c1nc(Cc2ccccc2)n(-c2ccc(S(N)(=O)=O)cc2)n1 [Example R-47]', '%', 90),
  ('Cc1noc(C2CCN(C(=O)c3nc(Cc4ccccc4)n(-c4ccc(S(N)(=O)=O)cc4)n3)C2)n1 (stereo not drawn) [Example R-63]', '%', 95),
  ('CN(Cc1nc2ccc(F)cc2[nH]1)C(=O)c1nc(Cc2ccccc2)n(-c2ccc(S(N)(=O)=O)cc2)n1 [Example R-49]', '%', 96),
  ('NS(=O)(=O)c1ccc(-n2nc(C(=O)N3CC(CO)C(c4ccccn4)C3)nc2Cc2ccccc2)cc1 (stereo not drawn) [Example R-59]', '%', 97);

###

Biological target: human CA-II (Homo sapiens)
Construct: purchased Sigma-Aldrich C6165
Assay: Carbonic Anhydrase-II (CA-II) Fluorescence Polarization Tight Binding Assay-Kd Determination
Conditions: inhibitor concentration 2.5 nM
Reported inhibition at 0.0025 µM is given for each of the following compounds.
quantity measured: inhibition at 0.0025 µM (%)

INSERT INTO assay_data (compound, reported_measurement) VALUES
  ('CCOc1ccccc1CNCc1nc(Cc2ccccc2)n(-c2ccc(S(N)(=O)=O)cc2F)n1', 41),
  ('C[C@H](CNCc1nc(Cc2ccccc2)n(-c2ccc(S(N)(=O)=O)cc2F)n1)c1ccccc1', 39),
  ('CCC(COC)NCc1nc(Cc2ccccc2)n(-c2ccc(S(N)(=O)=O)cc2F)n1 (stereo not shown)', 89),
  ('NS(=O)(=O)c1ccc(-n2nc(CN[C@@H]3C[C@H]4CC[C@@H]3C4)nc2Cc2ccccc2)c(F)c1', 47),
  ('COC1COCCN(Cc2nc(Cc3ccccc3)n(-c3ccc(S(N)(=O)=O)cc3F)n2)C1 (stereo not shown)', 49),
  ('C[C@@H](NCc1nc(Cc2ccccc2)n(-c2ccc(S(N)(=O)=O)cc2F)n1)[C@@H](O)c1ccccc1', 41),
  ('COc1cccc(CCNCc2nc(Cc3ccccc3)n(-c3ccc(S(N)(=O)=O)cc3F)n2)c1', 50),
  ('CN(CCn1cccn1)Cc1nc(Cc2ccccc2)n(-c2ccc(S(N)(=O)=O)cc2F)n1', 54),
  ('NS(=O)(=O)c1ccc(-n2nc(CNCC3(c4ccccc4)CC3)nc2Cc2ccccc2)c(F)c1', 53),
  ('COC[C@H]1CCC[C@H]1NCc1nc(Cc2ccccc2)n(-c2ccc(S(N)(=O)=O)cc2F)n1', 47);
